# Assayed target: ERK2 (Rattus norvegicus, UniProt P63086)
# Sequence (P63086 2-358 limits assumed): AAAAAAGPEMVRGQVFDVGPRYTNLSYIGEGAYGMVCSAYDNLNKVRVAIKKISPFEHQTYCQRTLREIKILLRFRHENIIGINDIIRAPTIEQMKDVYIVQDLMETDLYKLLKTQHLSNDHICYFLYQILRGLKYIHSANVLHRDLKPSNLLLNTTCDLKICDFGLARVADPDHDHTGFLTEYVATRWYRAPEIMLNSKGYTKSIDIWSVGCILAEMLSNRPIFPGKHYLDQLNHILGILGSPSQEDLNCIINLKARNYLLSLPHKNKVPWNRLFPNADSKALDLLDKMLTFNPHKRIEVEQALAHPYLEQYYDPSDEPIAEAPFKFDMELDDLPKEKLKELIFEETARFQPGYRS
# Method description: Phosphorylation of TH Ser31-containing peptides by purified, recombinant, activated ERK2
# Assay type: biochemical
# Settings: mean of four determinations
Ends that are not written are not given here.
Field: RELATIVE 32P INCORPORATION (% 3.0 μmol/min/mg) Mean. Provide a value for each of the substances that follow.
Write it as a number; the unit % 3.0 μmol/min/mg goes unstated.

Q. # RELATIVE 32P INCORPORATION (% 3.0 μmol/min/mg) Mean lookup, item YQAEAIMSPRFIGRR-NH2 [SEQ ID NO: 14]
A. 117

Q. Also QAEAIMSPRFGRR-NH2 [SEQ ID NO: 15] , if possible.
A. 107

Q. Also YQATGPLSPGPFRR-NH2 [SEQ ID NO: 16] , if possible.
A. 164

Q. Also YQATGPLSPGFRR-NH2 [SEQ ID NO: 18] , if possible.
A. 215

Q. Also YQAEAIMSPRFIGRRQ (This sequence is new and based on TH-31 type 1 HUMAN.) [SEQ ID NO: 13] , if possible.
A. 100

Q. Also QATGPLSPGPFRR-NH2 [SEQ ID NO: 17] , if possible.
A. 143

Q. Also QATGPLSPGFRR-NH2 [SEQ ID NO: 19] , if possible.
A. 182

###

Field: RELATIVE 32P INCORPORATION (% OF MBP). Provide a value for each of the sequences that follow.
# Assayed target: ERK1 (Rattus norvegicus, UniProt P21708)
# Sequence (P21708 2-380 limits assumed): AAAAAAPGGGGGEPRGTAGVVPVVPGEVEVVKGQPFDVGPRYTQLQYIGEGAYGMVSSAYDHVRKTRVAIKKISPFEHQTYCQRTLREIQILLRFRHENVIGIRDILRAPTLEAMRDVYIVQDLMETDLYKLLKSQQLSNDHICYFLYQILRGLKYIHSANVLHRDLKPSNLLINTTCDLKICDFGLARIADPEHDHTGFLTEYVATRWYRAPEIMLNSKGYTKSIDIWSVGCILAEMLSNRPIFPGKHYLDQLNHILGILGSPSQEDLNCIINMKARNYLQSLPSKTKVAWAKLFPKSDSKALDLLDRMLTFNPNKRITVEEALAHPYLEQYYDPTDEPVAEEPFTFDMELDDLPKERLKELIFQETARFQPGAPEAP
# Method description: Phosphorylation of substrates by purified, activated ERK1 (32P incorporation, P81 paper)
# Assay type: biochemical
# Settings: peptides 1 mM, MBP 20 μM, 10 min at 30° C., median of three determinations

Q. # returns recorded RELATIVE 32P INCORPORATION (% OF MBP) (system: ERK1 (Rattus norvegicus, UniProt P21708)) for PTPSAPSPQPK (This sequence is TH (rat) Ser8.) [SEQ ID NO: 4]
A. <1 % OF MBP

Q. Also GRRQSLIEDAR (This sequence is TH (rat) Ser40.) [SEQ ID NO: 6] , if possible.
A. <1 % OF MBP

Q. Also RRELVEPLTPSGEA (This sequence is EGF Receptor (Thr669).) [SEQ ID NO: 3] , if possible.
A. 13 % OF MBP

Q. Also RRAVSEQDAK (This sequence is TH (rat) Ser19.) [SEQ ID NO: 5] , if possible.
A. <1 % OF MBP

Q. Also KQAEAVTSPR (This sequence is based on TH-Ser31 (rat).) [SEQ ID NO: 7] , if possible.
A. 5 % OF MBP

Q. Also APRTPGGRR (This sequence is MBPtide (Thr 97).) [SEQ ID NO: 2] , if possible.
A. 28 % OF MBP

###

# Assayed target: ERK2 (Rattus norvegicus, UniProt P63086)
# Method description: Phosphorylation of TH Ser31-containing peptides by purified, recombinant, activated ERK2
# Type: biochemical
# Settings: substrate 1 mM, median of three determinations
Assay endpoint: RELATIVE 32P INCORPORATION (% 3.3 μmol/min/mg)
Write it as a number; the unit % 3.3 μmol/min/mg goes unstated.

Q. # RELATIVE 32P INCORPORATION (% 3.3 μmol/min/mg) lookup, item EAVTSPRFIGRR (This sequence is based on TH-Ser31 (rat).) [SEQ ID NO: 9]
A. 20

Q. Also AVTSPRFIGRR (This sequence is based on TH-Ser31 (rat).) [SEQ ID NO: 8] , if possible.
A. 9

Q. Also EAIMSPRFIGRR (This sequence is based on TH-31 type 1 HUMAN.) [SEQ ID NO: 12] , if possible.
A. 41

Q. Also EAIMVRGQSPRFK (This sequence is based on TH-Ser31 type 2 HUMAN.) [SEQ ID NO: 22] , if possible.
A. 2

###

Field: Vmax(app) Relative. Provide a value for each of the sequences that follow.
# Assayed target: ERK2 (Rattus norvegicus, UniProt P63086)
# Method description: Steady-state kinetic analyses of peptide substrates for ERK2
# Assay type: biochemical
# Settings: relative values, median of three determinations
Please respond with just the number, no unit label.

Q. # Vmax(app) Relative lookup, item APRTPGGRR (This sequence is MBPtide (Thr 97).) [SEQ ID NO: 2]
A. 46

Q. Also EAIMSPRFK (This sequence is based on TH-31 type 1 HUMAN.) [SEQ ID NO: 10] , if possible.
A. 42

Q. Also ATGPLSPGPFGRR (ATGPLSPFGRR; This sequence is ERKtide.) [SEQ ID NO: 23] , if possible.
A. 82

Q. Also KQAEAVTSPR (This sequence is based on TH-Ser31 (rat).) [SEQ ID NO: 7] , if possible.
A. 9

###

# Assayed target: ERK2 (Rattus norvegicus, UniProt P63086)
# Method description: Phosphorylation of TH Ser31-containing peptides by purified, recombinant, activated ERK2
# Assay type: biochemical
# Settings: substrate 1 mM, median of three determinations
Ends that are not written are not given here.
Label Satisfied for high-side RELATIVE 32P INCORPORATION (% 3.3 μmol/min/mg) (at or above 30 % 3.3 μmol/min/mg) and Not satisfied for low-side RELATIVE 32P INCORPORATION (% 3.3 μmol/min/mg) (below it).

Q. Does the reported RELATIVE 32P INCORPORATION (% 3.3 μmol/min/mg) for IMVRGQSPR (This sequence is based on TH-Ser31 type 2 HUMAN.) [SEQ ID NO: 20] fall at or above the 30 % 3.3 μmol/min/mg mark?
A. Not satisfied

Q. Also YQAEAIMSPRFIGRR-NH2 [SEQ ID NO: 14] , if possible.
A. Satisfied

Q. Also YQAEAIMSPRFIGRRQ (This sequence is new and based on TH-31 type 1 HUMAN.) [SEQ ID NO: 13] , if possible.
A. Satisfied

Q. Also KQAEAVTSPR (This sequence is based on TH-Ser31 (rat).) [SEQ ID NO: 7] , if possible.
A. Not satisfied

Q. Also EAIMSPRFK (This sequence is based on TH-31 type 1 HUMAN.) [SEQ ID NO: 10] , if possible.
A. Not satisfied

Q. Also AIMSPRFIGRR (This sequence is based on TH-31 type 1 HUMAN.) [SEQ ID NO: 11] , if possible.
A. Not satisfied

Q. Also YIMVRGQSPR (This sequence is based on TH-Ser31 type 2 HUMAN.) [SEQ ID NO: 21] , if possible.
A. Not satisfied

###

# Assayed target: ERK2 (Rattus norvegicus)
# Method description: Steady-state kinetic analyses of peptide substrates for ERK2
# Assay type: biochemical
# Settings: median of three determinations
Assay endpoint: Kmin(app)

Q. # Kmin(app) lookup, item APRTPGGRR (This sequence is MBPtide (Thr 97).) [SEQ ID NO: 2]
A. 2.0 mM

Q. Also KQAEAVTSPR (This sequence is based on TH-Ser31 (rat).) [SEQ ID NO: 7] , if possible.
A. 1.8 mM

Q. Also YQAEAIMSPRFIGRRQ (This sequence is new and based on TH-31 type 1 HUMAN.) [SEQ ID NO: 13] , if possible.
A. 1.0 mM

Q. Also EAIMSPRFK (This sequence is based on TH-31 type 1 HUMAN.) [SEQ ID NO: 10] , if possible.
A. 1.4 mM

Q. Also ATGPLSPGPFGRR (ATGPLSPFGRR; This sequence is ERKtide.) [SEQ ID NO: 23] , if possible.
A. 0.6 mM
